System: SF-268
assay.text: NCI tumour cell line growth inhibition, 48 h
Active and inactive are the calls of the source. Rule as the data show it: active = GI50 up to about 1.1 µM and inactive = higher.
property.label: GI50

# count of solved cases: 5
CCCCCC(CN1CCOCC1)C(=O)/C=C/c1ccccc1 (stereo not drawn) = 1.94 µM (inactive)
NCCCNC1(c2cc3ccccc3s2)CCCCC1 = 9.93 µM (inactive)
COc1ccc2nc3cc(Cl)ccc3c(Sc3ccc([N+](=O)[O-])cc3C)c2c1 = > 100 µM (inactive)
Cc1ccc2c(c1)/C(=N/Nc1ccccc1[N+](=O)[O-])C(=O)N2 = 3.4 µM (inactive)
N#CNC1=NC(CCCC(=O)Nc2cccc([N+](=O)[O-])c2)=C(c2nc3ccccc3[nH]2)C(N)N1 (stereo not drawn) = > 100 µM (inactive)

Fill in: GI50 on SF-268, entry C/C=C1\CN(C(=O)OC(C)(C)C)C1C(=O)OC(C)(C)C (stereo not drawn) > 100 µM (inactive)

Fill in: GI50 on SF-268, entry "NS(=O)(=O)c1ccc(NC(NC(=O)C(C(F)(F)F)C(F)(F)F)(C(F)(F)F)C(F)(F)F)cc1" > 100 µM (inactive)

Fill in: GI50 on SF-268, entry "O=C(O)c1nn(-c2ccccc2)nc1-c1nn(-c2ccccc2)nc1C(=O)O" > 100 µM (inactive)

Fill in: GI50 on SF-268, entry "Cc1cc(NC2=NCCO2)c2c(c1C)CCCC2" 18.9 µM (inactive)
